All values here come from patent US20120010205A1.

measuredTarget: human LXRβ (Homo sapiens)
Sequence (P55055 1-460): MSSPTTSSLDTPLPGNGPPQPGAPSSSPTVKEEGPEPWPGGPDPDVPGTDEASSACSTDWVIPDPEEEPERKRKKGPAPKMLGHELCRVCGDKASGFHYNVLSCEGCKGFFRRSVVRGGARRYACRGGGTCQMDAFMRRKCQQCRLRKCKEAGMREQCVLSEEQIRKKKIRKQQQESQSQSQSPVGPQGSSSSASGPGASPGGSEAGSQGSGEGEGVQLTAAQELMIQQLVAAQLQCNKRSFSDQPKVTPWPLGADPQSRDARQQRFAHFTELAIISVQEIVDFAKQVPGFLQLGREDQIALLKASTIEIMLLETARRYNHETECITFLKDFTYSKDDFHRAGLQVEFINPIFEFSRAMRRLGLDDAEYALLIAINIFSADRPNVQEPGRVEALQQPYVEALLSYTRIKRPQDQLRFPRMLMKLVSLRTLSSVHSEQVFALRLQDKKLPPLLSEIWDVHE
pIC50: −log10 of the molar value.
pIC50 vs 8: at or above is True, below is False.

Enquiry: Evaluate CC(C)c1cnc2c(Cl)cccc2c1-c1cccc(OC(=O)c2ccccc2S(C)(=O)=O)c1 [Example 4] : pIC50 at minimum 8?
Return: False

Enquiry: Evaluate Cc1ccc(S(C)(=O)=O)cc1C(=O)Oc1cccc(-c2c(C(C)C)cnc3c(Cl)cccc23)c1 [Example 2] : pIC50 at minimum 8?
Return: True

Enquiry: Evaluate Cc1cnc2c(C(F)(F)F)cccc2c1-c1cccc(OC(=O)c2cccc(S(C)(=O)=O)c2)c1 [Example 11] : pIC50 at minimum 8?
Return: True

Enquiry: Evaluate CS(=O)(=O)c1cccc(C(=O)Oc2cccc(-c3ccnc4c(C(F)(F)F)cccc34)c2)c1 [Example 21] : pIC50 at minimum 8?
Return: False

Enquiry: Evaluate Cc1cnc2c(Cl)cccc2c1-c1cccc(OC(=O)c2cccc(S(C)(=O)=O)c2)c1 [Example 17] : pIC50 at minimum 8?
Return: True

Enquiry: Evaluate CS(=O)(=O)c1cccc(C(=O)Oc2cccc(-c3c(C#N)cnc4c(C(F)(F)F)cccc34)c2)c1 [Example 24] : pIC50 at minimum 8?
Return: False

Enquiry: Evaluate CC(C)c1cnc2c(Cl)cccc2c1-c1cccc(OC(=O)c2cccc(S(=O)(=O)N3CCOCC3)c2)c1 [Example 37] : pIC50 at minimum 8?
Return: False

Enquiry: Evaluate Cc1cnc2c(C(F)(F)F)cccc2c1-c1cccc(C(=O)Oc2cccc(S(C)(=O)=O)c2)c1 [Example 12] : pIC50 at minimum 8?
Return: False

Enquiry: Evaluate CCCc1cnc2c(C(F)(F)F)cccc2c1-c1cccc(OC(=O)c2cccc(S(C)(=O)=O)c2)c1 [Example 20] : pIC50 at minimum 8?
Return: True

Enquiry: Evaluate CC(C)c1cnc2c(C(F)(F)F)cccc2c1-c1cccc(OC(=O)c2cccc(S(C)(=O)=O)c2)c1 [Example 15] : pIC50 at minimum 8?
Return: True

Enquiry: Evaluate Cc1ccc(S(=O)(=O)N2CCOCC2)cc1C(=O)Oc1cccc(-c2c(C(C)C)cnc3c(Cl)cccc23)c1 [Example 38] : pIC50 at minimum 8?
Return: False

Enquiry: Evaluate CC(C)c1cnc2c(Cl)cccc2c1-c1cccc(OC(=O)c2cccc(S(=O)(=O)N(C)C)c2)c1 [Example 33] : pIC50 at minimum 8?
Return: True
